# MEASUREMENT_TARGET: T1, hu-IL-36α (human IL-36α, N-terminally truncated active form K6-F158) (human, UniProt Q9UHA7 6-158)
# T1 construct: Purification tag cleaved off; Biotinylated where captured (SPR, some ELISAs); also called hu-IL-36a
# T1 sequence: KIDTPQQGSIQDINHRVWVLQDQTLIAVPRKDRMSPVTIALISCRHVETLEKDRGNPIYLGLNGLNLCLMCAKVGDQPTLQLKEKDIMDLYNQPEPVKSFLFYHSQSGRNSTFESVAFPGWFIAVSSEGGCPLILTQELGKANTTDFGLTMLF
# ASSAY_COMMENT: SPR (Biacore 8K), biotinylated hu-IL-36 captured on CAP chip, Fab injected, 37°C
RECORDED_METRIC: kon (M⁻¹ s⁻¹)
Answers are plain numbers, in M⁻¹ s⁻¹.

Recorded kon for mAb2.10 Fab (Fab, V domains shown, Recombinant Fab with 8xHis tag (Expi293F)) VH: ELQLQESGPGLVKPSETLSLTCTVSGGSISDSSYYWGWIRQPPGKGLEWIGSIYYTGETYYAPSLKSRVTISVDTSKNQFSLKLSSVTAADTAVYYCARVRYGVGVPRHFDPWGQGTLVTVSS VL: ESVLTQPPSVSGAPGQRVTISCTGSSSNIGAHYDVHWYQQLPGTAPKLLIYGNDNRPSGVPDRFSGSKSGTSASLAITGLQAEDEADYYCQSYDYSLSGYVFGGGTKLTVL , please?
1.49e+06

meta.source: patent US20230235040A1
